Measured MIC, listed per entry for reference.
system: Staphylococcus epidermidis; experiment: Antibacterial activity against Staphylococcus epidermidis CCM 7221 assessed as inhibition of bacterial growth incubated for 24 hrs by microdilution assay; format: functional
Provide the reading as a plain figure in mg/L.

Some compounds with recorded MIC:
{"columns": ["compound", "unit-string", "MIC"],
 "data": [
  ["CCCCCOP(=O)(CCN(CCCN)CCCN)OCCCCCCCCOP(=O)(CCN(CCCN)CCCN)OCCCCC.Cl.Cl.Cl.Cl.Cl.Cl (centres undefined)", "mg/L", 4],
  ["CCCCOP(=O)(CCN(CCN)CCN)OCCCCCCCCCCOP(=O)(CCN(CCN)CCN)OCCCC.Cl.Cl.Cl.Cl.Cl.Cl (centres undefined)", "mg/L", 64],
  ["CCCCCCOP(=O)(CCN(CCCN)CCCN)OCCCCCCOP(=O)(CCN(CCCN)CCCN)OCCCCCC.Cl.Cl.Cl.Cl.Cl.Cl (centres undefined)", "mg/L", 4]
]}

Query: What measured MIC goes with CCCCOP(=O)(CCN(CCCN)CCCN)OCCCCCCCCCCCCOP(=O)(CCN(CCCN)CCCN)OCCCC.Cl.Cl.Cl.Cl.Cl.Cl (centres undefined) ?
Response: 1

Query: What measured MIC goes with Cl.Cl.Cl.Cl.Cl.Cl.NCCCN(CCCN)CCP(=O)(OCCCCCCOP(=O)(CCN(CCCN)CCCN)OCCCC1CCCCC1)OCCCC1CCCCC1 (centres undefined) ?
Response: 0.5

Query: What measured MIC goes with CC(C)COP(=O)(CCN(CCCN)CCCN)OCCCCCCCCCCCCCCOP(=O)(CCN(CCCN)CCCN)OCC(C)C.Cl.Cl.Cl.Cl.Cl.Cl (centres undefined) ?
Response: 0.5

----------
Measured MIC, listed per entry for reference.
tested on: Staphylococcus aureus; assay: Antibacterial activity against methicillin resistant Staphylococcus aureus 4591/A assessed as reduction in microbial growth incubated for 24 hrs by microdilution assay; assay type: functional
Provide the reading as a plain figure in µg/mL.

Query: What measured MIC goes with CCCCCCOP(=O)(CCN(CCN)CCN)OCCCCCCCCOP(=O)(CCN(CCN)CCN)OCCCCCC.Cl.Cl.Cl.Cl.Cl.Cl (centres undefined) ?
Response: 2

Query: What measured MIC goes with CCCCCCCCOP(=O)(CCN(CCCN)CCCN)OCCCCCCOP(=O)(CCN(CCCN)CCCN)OCCCCCCCC.Cl.Cl.Cl.Cl.Cl.Cl (centres undefined) ?
Response: 1

Query: What measured MIC goes with CCC/C=C\CCOP(=O)(CCN(CCCNC(=N)N)CCCNC(=N)N)OCCCCCCOP(=O)(CCN(CCCNC(=N)N)CCCNC(=N)N)OCC/C=C\CCC.Cl.Cl.Cl.Cl.Cl.Cl (centres undefined) ?
Response: 2

Query: What measured MIC goes with CCCCOP(=O)(CCN(CCCN)CCCN)OCCCCCCCCCCOP(=O)(CCN(CCCN)CCCN)OCCCC.Cl.Cl.Cl.Cl.Cl.Cl (centres undefined) ?
Response: 8

----------
test system: Staphylococcus aureus; experiment: Antibacterial activity against wild type Staphylococcus aureus 4904/C assessed as reduction in microbial growth incubated for 24 hrs by microdilution assay; format: functional
Measured MIC, listed per entry for reference.
# output: numeric value plus its unit

{"columns": ["molecule", "MIC"],
 "data": [
  ["Cc1onc(-c2ccccc2)c1C(=O)N[C@@H]1C(=O)N2[C@@H]1SC(C)(C)[C@@H]2C(=O)O", "0.25 µg/mL"],
  ["CC1(C)S[C@@H]2[C@H](NC(=O)[C@H](N)c3ccccc3)C(=O)N2[C@H]1C(=O)O", "0.5 µg/mL"],
  ["CCCCCCOP(=O)(CCN(CCCNC(=N)N)CCCNC(=N)N)OCCCCCCCCOP(=O)(CCN(CCCNC(=N)N)CCCNC(=N)N)OCCCCCC.Cl.Cl.Cl.Cl.Cl.Cl (centres undefined)", "0.5 µg/mL"]
]}

Query: What measured MIC goes with `O=C(N[C@H](CO)[C@H](O)c1ccc([N+](=O)[O-])cc1)C(Cl)Cl` ?
Response: 2 µg/mL

Origin of the recorded values: ChEMBL document CHEMBL5120927
